Measured IC50 by item
Target: UniProtKB P0DTD1
Type: biochemical
Conditions: read-out: SARS-CoV-2M^pro inhibition IC50; wild type Mpro 17 nM, substrate 40 uM
// units = µM; emit number, no label

The cases that follow already have their IC50 on record.
STRUCTURE_NOTATION: CC(C)C[C@H](NC(=O)C(C)(C)C)C(=O)N1C[C@H]2[C@@H]([C@H]1C(=O)N[C@H](C#N)C[C@@H]1CCNC1=O)C2(C)C
IC50, µM: 0.0396
//
STRUCTURE_NOTATION: CC(C)C[C@H](NC(=O)c1cc2ccccc2[nH]1)C(=O)N1C[C@H]2[C@@H]([C@H]1C(=O)N[C@@H](C#N)C[C@@H]1CCNC1=O)C2(C)C
IC50, µM: 0.964
//
STRUCTURE_NOTATION: CC(C)C[C@H](NC(=O)c1cc2ccccc2[nH]1)C(=O)N[C@@H](C[C@@H]1CCNC1=O)C(=O)CO
IC50, µM: 0.0102

Quick one: give measured IC50 for CC(C)C[C@H](NC(=O)C(C)C)C(=O)N1C[C@H]2[C@@H]([C@H]1C(=O)N[C@H](C#N)C[C@@H]1CCNC1=O)C2(C)C
0.0433

Name the recorded IC50 of the item CC(C)(C)[C@H](NC(=O)C(F)(F)F)C(=O)N1C[C@H]2[C@@H]([C@H]1C(=O)N[C@H](C#N)C[C@@H]1CCCNC1=O)C2(C)C in your answer.
0.00583

Source of measurements: patent US11753373B2
